The measured values listed here are drawn from ChEMBL document CHEMBL1138359.

Could you please report measured viability at 48 h, 750 µM for the items listed next?
test: Cell viability in mouse Neuro 2a cells at 750 uM after 48 hrs by MTT assay relative to control; format: cell-based, N2a; settings: read-out: Activity
Give bare numbers, in %.

The following molecules have reported results that may help.
C=CCNC(=O)c1ccc[n+]([C@@H]2O[C@H](CO)[C@@H](O)[C@H]2O)c1: 80
NC(=O)c1ccc[n+]([C@@H]2O[C@H](CO)[C@@H](O)[C@H]2O)c1 [NICOTINAMIDE RIBOSIDE]: 107
CCOC(=O)c1ccc[n+]([C@@H]2O[C@H](CO)[C@@H](O)[C@H]2O)c1: 169
O=C(NCCO)c1ccc[n+]([C@@H]2O[C@H](CO)[C@@H](O)[C@H]2O)c1: 51

viability at 48 h, 750 µM reported for this molecule "O=C(O)c1ccc[n+]([C@@H]2O[C@H](CO)[C@@H](O)[C@H]2O)c1" : 125

---

assay: Cell viability in mouse AB1 cells at 750 uM after 48 hrs by MTT assay relative to control; type: cell-based; details: read-out: Activity
Could you please report measured viability at 48 h, 750 µM for the items listed next?
One number for each entry, in %.

O=C(NCCO)c1ccc[n+]([C@@H]2O[C@H](CO)[C@@H](O)[C@H]2O)c1: 101
C=CCNC(=O)c1ccc[n+]([C@@H]2O[C@H](CO)[C@@H](O)[C@H]2O)c1: 57
CCOC(=O)c1ccc[n+]([C@@H]2O[C@H](CO)[C@@H](O)[C@H]2O)c1: 103

viability at 48 h, 750 µM reported for this molecule "CCNC(=O)c1ccc[n+]([C@@H]2O[C@H](CO)[C@@H](O)[C@H]2O)c1" : 57
